# Test system: CHSA8926 (Chondrosarcoma)
# experimental protocol: combination Emax (second highest fraction inhibited in the dose matrix, 72 h); higher = more inhibition; extreme values may be limits of the assay
property measured: combination Emax
Write the value as a bare number.

What does the record list as combination Emax for C[C@@H](c1ccc2nccn2c1)n1nnc2ncc(-c3cnn(C)c3)nc21 [Savolitinib] + Cc1c2c(nn1C)CSCc1cc(n(C)n1)CSc1cc(c3ccccc3c1)OCCCc1c(C(=O)O)n(C)c3c-2c(Cl)ccc13 [AZD5991] (first compound max 1 µM, 7x7, partner max 1 µM) ?
0.318

And what about the compound CC1(C)CCC(CN2CCN(c3ccc(C(=O)NS(=O)(=O)c4ccc(NCC5CCOCC5)c([N+](=O)[O-])c4)c(Oc4cnc5[nH]ccc5c4)c3)CC2)=C(c2ccc(Cl)cc2)C1 [Venetoclax] + C1CN(CCC1(C(=O)N[C@@H](CCO)C2=CC=C(C=C2)Cl)N)C3=NC=NC4=C3C=CN4 [Capivasertib] (first compound max 1 µM, 7x7, partner max 3 µM) ?
0.331

Now the same for C[C@@H](c1ccc2nccn2c1)n1nnc2ncc(-c3cnn(C)c3)nc21 [Savolitinib] + CN(CC[C@H](CSC1=CC=CC=C1)NC2=C(C=C(C=C2)S(=O)(=O)NC(=O)C3=CC=C(C=C3)N4CCC(CC4)[C@H](C5=CC=CC=C5C6=CC=C(C=C6)Cl)O)S(=O)(=O)C(F)(F)F)CCO [AZD4320] (first compound max 1 µM, 7x7, partner max 1 µM)
0.528

Entry to check: COc1nnc2ccc(N3CCC(c4ccc(OCCN5CCN(C)C(=O)[C@H]5C)cc4)CC3)nn12 [AZD5153] + CCN(CCO)CCCOc1ccc2c(Nc3cc(CC(=O)Nc4cccc(F)c4)[nH]n3)ncnc2c1 [AZD2811] (first compound max 1 µM, 7x7, partner max 1 µM)
0.537

Input Cn1cnc2c(F)c(Nc3ccc(Br)cc3Cl)c(C(=O)NOCCO)cc21 [Selumetinib] + CC(C)n1c(=O)n(C)c2cnc3cc(F)c(-c4ccc(OCCCN5CCCCC5)nc4)cc3c21 [AZD1390] (first compound max 10 µM, 7x7, partner max 0.3 µM)
0.185

// repeat for Cn1cnc2c(F)c(Nc3ccc(Br)cc3Cl)c(C(=O)NOCCO)cc21 [Selumetinib] + C=CCn1c(=O)c2cnc(Nc3ccc(N4CCN(C)CC4)cc3)nc2n1-c1cccc(C(C)(C)O)n1 [AZD1775] (first compound max 10 µM, partner max 1 µM) and report
0.556

What about this compound? Cc1cc2ncnn2cc1Nc1ncc2c(n1)n(C1CCOCC1)c(=O)n2C [AZD7648] + C=CCn1c(=O)c2cnc(Nc3ccc(N4CCN(C)CC4)cc3)nc2n1-c1cccc(C(C)(C)O)n1 [AZD1775] (first compound max 10 µM, partner max 1 µM)
0.592

###

# Tested on: NCI-H526 (Small Cell Lung Carcinoma)
# experimental protocol: combination Emax (second highest fraction inhibited in the dose matrix, 72 h); higher = more inhibition; extreme values may be limits of the assay
property measured: combination Emax
The answer should be written as a number, with no unit following it.

Quick one: combination Emax of C=CCn1c(=O)c2cnc(Nc3ccc(N4CCN(C)CC4)cc3)nc2n1-c1cccc(C(C)(C)O)n1 [AZD1775] + Nc1ccn([C@@H]2O[C@H](CO)[C@@H](O)C2(F)F)c(=O)n1 [Gemcitabine] (first compound max 1 µM, partner max 0.3 µM) ?
0.968

Entry to check: COc1nnc2ccc(N3CCC(c4ccc(OCCN5CCN(C)C(=O)[C@H]5C)cc4)CC3)nn12 [AZD5153] + Cc1c2c(nn1C)CSCc1cc(n(C)n1)CSc1cc(c3ccccc3c1)OCCCc1c(C(=O)O)n(C)c3c-2c(Cl)ccc13 [AZD5991] (first compound max 1 µM, 7x7, partner max 1 µM)
1

Entry COc1nnc2ccc(N3CCC(c4ccc(OCCN5CCN(C)C(=O)[C@H]5C)cc4)CC3)nn12 [AZD5153] + CCN(CCO)CCCOc1ccc2c(Nc3cc(CC(=O)Nc4cccc(F)c4)[nH]n3)ncnc2c1 [AZD2811] (first compound max 1 µM, 7x7, partner max 1 µM) please
0.944

What would you report for COc1nnc2ccc(N3CCC(c4ccc(OCCN5CCN(C)C(=O)[C@H]5C)cc4)CC3)nn12 [AZD5153] + C=CCn1c(=O)c2cnc(Nc3ccc(N4CCN(C)CC4)cc3)nc2n1-c1cccc(C(C)(C)O)n1 [AZD1775] (first compound max 1 µM, partner max 1 µM) ?
0.947

Same for CN(CCO)CC[C@H](CSc1ccccc1)Nc1ccc(S(=O)(=O)NC(=O)c2ccc(N3CCC([C@@H](O)c4ccccc4-c4ccc(Cl)cc4)CC3)cc2)cc1S(=O)(=O)C(F)(F)F [AZD4320] + CS(=O)(=O)CCNCc1ccc(-c2ccc3ncnc(Nc4ccc(OCc5cccc(F)c5)c(Cl)c4)c3c2)o1 [Lapatinib] (first compound max 1 µM, 7x7, partner max 10 µM)
0.995

# iterate: CCN(CCO)CCCOc1ccc2c(Nc3cc(CC(=O)Nc4cccc(F)c4)[nH]n3)ncnc2c1 [AZD2811] + C=CCn1c(=O)c2cnc(Nc3ccc(N4CCN(C)CC4)cc3)nc2n1-c1cccc(C(C)(C)O)n1 [AZD1775] (first compound max 1 µM, partner max 1 µM)
0.566

Can you check COc1cccc(OCCCN)c1-c1cc(Nc2cnc(C#N)cn2)n[nH]1 [Prexasertib] + C[C@@H]1COCCN1C2=NC(=NC(=C2)C3(CC3)[S@](=N)(=O)C)C4=C5C=CNC5=NC=C4 [AZD6738] (first compound max 1 µM, 7x7, partner max 10 µM) next?
0.92

###

# Tested on: COR-L279 (Small Cell Lung Carcinoma)
# experimental protocol: Bliss excess, mean over the matrix (fraction); higher = more synergy
property measured: Bliss excess
Lab note: write the figure by itself, no unit.

Item under review: COc1cc2ncnc(Nc3ccc(F)c(Cl)c3)c2cc1OCCCN1CCOCC1 [Gefitinib] + CC(C)n1c(=O)n(C)c2cnc3cc(F)c(-c4ccc(OCCCN5CCCCC5)nc4)cc3c21 [AZD1390] (first compound max 10 µM, 7x7, partner max 0.3 µM) . Reported Bliss excess?
-0.0419

// query: C[C@@H](c1ccc2nccn2c1)n1nnc2ncc(-c3cnn(C)c3)nc21 [Savolitinib] + CC1(C)CCC(CN2CCN(c3ccc(C(=O)NS(=O)(=O)c4ccc(NCC5CCOCC5)c([N+](=O)[O-])c4)c(Oc4cnc5[nH]ccc5c4)c3)CC2)=C(c2ccc(Cl)cc2)C1 [Venetoclax] (first compound max 1 µM, 7x7, partner max 1 µM)
-0.0059

Please do the same for Cc1c2c(nn1C)CSCc1cc(n(C)n1)CSc1cc(c3ccccc3c1)OCCCc1c(C(=O)O)n(C)c3c-2c(Cl)ccc13 [AZD5991] + CN(C)CCCOc1ccc(-c2ccc3ncc4c(c3c2)n(C2CCOCC2)c(=O)n4C)cn1 [AZD0156] (first compound max 1 µM, 7x7, partner max 1 µM) as well.
-0.0051

###

# System: COR-L279 (Small Cell Lung Carcinoma)
# experimental protocol: combination Emax (second highest fraction inhibited in the dose matrix, 72 h); higher = more inhibition; extreme values may be limits of the assay
Assign combination Emax to each entry below.

Would you mind telling me what combination Emax value was observed for CC(=O)c1c(C)c2cnc(Nc3ccc(N4CCNCC4)cn3)nc2n(C2CCCC2)c1=O [Palbociclib] + Cc1c2c(nn1C)CSCc1cc(n(C)n1)CSc1cc(c3ccccc3c1)OCCCc1c(C(=O)O)n(C)c3c-2c(Cl)ccc13 [AZD5991] (first compound max 10 µM, 7x7, partner max 1 µM) ?
0.627

And what about the molecule CN(CCO)CC[C@H](CSc1ccccc1)Nc1ccc(S(=O)(=O)NC(=O)c2ccc(N3CCC([C@@H](O)c4ccccc4-c4ccc(Cl)cc4)CC3)cc2)cc1S(=O)(=O)C(F)(F)F [AZD4320] + C1CN(CCC1(C(=O)N[C@@H](CCO)C2=CC=C(C=C2)Cl)N)C3=NC=NC4=C3C=CN4 [Capivasertib] (first compound max 1 µM, 7x7, partner max 3 µM) ?
0.983

Record: CN(C)CCCOc1ccc(-c2ccc3ncc4c(c3c2)n(C2CCOCC2)c(=O)n4C)cn1 [AZD0156] + C=CCn1c(=O)c2cnc(Nc3ccc(N4CCN(C)CC4)cc3)nc2n1-c1cccc(C(C)(C)O)n1 [AZD1775] (first compound max 1 µM, partner max 1 µM)
0.454

###

# Tested on: MOLM-13 (Acute Myeloid Leukemia)
# experimental protocol: Bliss excess, mean over the matrix (fraction); higher = more synergy
For each of the compounds below, state its Bliss excess.

# get_value(readout= Bliss excess, system= MOLM-13 (Acute Myeloid Leukemia)) for CN(CCO)CC[C@H](CSc1ccccc1)Nc1ccc(S(=O)(=O)NC(=O)c2ccc(N3CCC([C@@H](O)c4ccccc4-c4ccc(Cl)cc4)CC3)cc2)cc1S(=O)(=O)C(F)(F)F [AZD4320] + Cc1cc2ncnn2cc1Nc1ncc2c(n1)n(C1CCOCC1)c(=O)n2C [AZD7648] (first compound max 1 µM, 7x7, partner max 10 µM)
0.0157

Proceed to CC1(C)CCC(CN2CCN(c3ccc(C(=O)NS(=O)(=O)c4ccc(NCC5CCOCC5)c([N+](=O)[O-])c4)c(Oc4cnc5[nH]ccc5c4)c3)CC2)=C(c2ccc(Cl)cc2)C1 [Venetoclax] + C[C@@H]1COCCN1C2=NC(=NC(=C2)C3(CC3)[S@](=N)(=O)C)C4=C5C=CNC5=NC=C4 [AZD6738] (first compound max 1 µM, 7x7, partner max 10 µM)
0.0068

Another compound to check: COc1cccc(OCCCN)c1-c1cc(Nc2cnc(C#N)cn2)n[nH]1 [Prexasertib] + CN(C)CCCOc1ccc(-c2ccc3ncc4c(c3c2)n(C2CCOCC2)c(=O)n4C)cn1 [AZD0156] (first compound max 1 µM, 7x7, partner max 1 µM)
-0.0248
